# tested-system: Short transient receptor potential channel 4 (Mus musculus) (UniProt Q9QUQ5)
# Sequence (Q9QUQ5 whole entry, looked up): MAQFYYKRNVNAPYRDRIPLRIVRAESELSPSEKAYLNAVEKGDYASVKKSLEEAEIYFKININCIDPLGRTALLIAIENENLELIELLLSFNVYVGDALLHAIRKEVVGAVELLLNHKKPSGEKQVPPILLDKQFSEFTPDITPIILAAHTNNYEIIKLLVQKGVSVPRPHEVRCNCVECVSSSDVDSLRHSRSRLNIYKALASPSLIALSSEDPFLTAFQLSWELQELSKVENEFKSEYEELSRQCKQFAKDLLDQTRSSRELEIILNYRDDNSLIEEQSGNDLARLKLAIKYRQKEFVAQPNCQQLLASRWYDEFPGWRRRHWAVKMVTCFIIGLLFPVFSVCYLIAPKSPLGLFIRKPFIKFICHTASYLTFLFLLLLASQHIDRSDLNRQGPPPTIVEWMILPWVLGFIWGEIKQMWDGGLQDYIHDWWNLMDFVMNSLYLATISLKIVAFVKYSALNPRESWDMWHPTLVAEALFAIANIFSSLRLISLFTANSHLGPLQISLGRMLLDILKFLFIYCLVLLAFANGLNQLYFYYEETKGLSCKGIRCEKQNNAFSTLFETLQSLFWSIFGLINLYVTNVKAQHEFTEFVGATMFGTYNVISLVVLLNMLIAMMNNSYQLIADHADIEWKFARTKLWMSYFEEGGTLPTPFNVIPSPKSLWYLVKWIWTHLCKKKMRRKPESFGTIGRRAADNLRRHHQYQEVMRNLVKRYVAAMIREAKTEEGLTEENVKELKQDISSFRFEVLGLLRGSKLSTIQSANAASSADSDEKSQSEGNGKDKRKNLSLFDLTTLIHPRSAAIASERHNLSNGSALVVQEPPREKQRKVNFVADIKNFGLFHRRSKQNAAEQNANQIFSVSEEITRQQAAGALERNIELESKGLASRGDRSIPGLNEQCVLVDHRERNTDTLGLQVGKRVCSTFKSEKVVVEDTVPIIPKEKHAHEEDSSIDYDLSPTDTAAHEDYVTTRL
# assay-remarks: potentiation of DAMGO-evoked TRPC4 calcium signal – cell-based, HEK293 TRPC4/mu-opioid, Fluo-4 calcium, EC20 DAMGO, dose response (AID 434941);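 note: calcium entry triggered by an EC20 dose of DAMGO at the co-expressed mu-opioid receptor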
# protocol-conditions: HEK293 TRPC4/mu-opioid cells, Fluo-4 calcium fluorescence; series mostly up to 20 µM
Entries with a potency or affinity are not part of this list. The source made the active and inactive calls.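 Rule for the calls: active = earlier screen potentiator hit that boosts the TRPC4 ion channel at some dose, with a dose response; inactive = no potentiation, no dose response, or not a prior hit.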
quantity-measured: outcome

compound	quantity-measured	measured
Fc1ccc(-n2cc(CNCCc3ccncc3)c(-c3ccccc3Cl)n2)cc1	outcome	inactive
CCN1/C(=C\c2ccc3cc(C)ccc3[n+]2CC)Sc2cc(C)c(C)cc21	outcome	inactive
COc1cc(/C=C2/SC(=O)NC2=O)ccc1OCc1ccccc1	outcome	inactive
CC(C)(C)NCc1cc(Cl)ccc1OCc1cccs1	outcome	inactive
c1ccc(Cc2nc3ccccc3n2Cc2ccccc2)cc1	outcome	inactive
CN1CCCN(Cc2cccc3ccccc23)CC1	outcome	inactive
COc1ccc(NC(C)=O)cc1NC(C)C(=O)Nc1cc(C(F)(F)F)ccc1N1CCOCC1 (stereo unspecified)	outcome	inactive
COc1ccc(C(=O)Nc2nc(-c3cccs3)cs2)cc1	outcome	inactive
O=C(NCc1ccccc1)c1ccc(S(=O)(=O)Nc2cccc(C(F)(F)F)c2)cc1	outcome	inactive
Cc1cc2oc(C(=O)N(Cc3cccs3)C3CCS(=O)(=O)C3)cc(=O)c2cc1Cl (stereo unspecified)	outcome	inactive
COc1ccccc1N1CCN(Cc2cc(=O)c(OCC(=O)NC3CCCC3)co2)CC1	outcome	inactive

---

# assay-remarks: parental CHO-K1 cell activation, no KCNQ2 – FluxOR thallium flux, duplicate, counter-screen for KCNQ2 potentiator project, confirmation (AID 2282);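 note: counter screen of KCNQ2 potentiator hits so any rise reflects channel-independent effects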
# protocol-conditions: parental CHO-K1 cells, FluxOR thallium flux fluorescence; at 10 µM; zero = vehicle mean+3SD, 100% = vehicle-minus-blank window
Some of the results follow. Calls of active or inactive are those of the source.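 The calls were made as follows: active = signal rise of at least 3 SD above the untreated control mean, in both duplicate wells; inactive = the rest.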
Classes used: 1.0 = active, 0.0 = inactive

molecule	answer-label
COc1ccc(NC(=O)/C(Cl)=C(/Cl)S(=O)Cc2ccc(C)cc2)cn1 (stereo not drawn)	0.0
CCOC(=O)c1sc(=S)n2c1[nH]c(=O)c1ccc(C(=O)OC)cc12	0.0
Oc1c(Cl)cc(Cl)cc1/C=N/c1ncn[nH]1	0.0
CC(C)(C)C1CCC(C(=O)NCC(c2cccs2)N2CCOCC2)CC1 (stereo not drawn)	0.0
CSc1nnc(NC(=O)c2nc(S(=O)(=O)Cc3ccc(C)cc3)ncc2Cl)s1	0.0
CCCCNC(=O)Nc1c(C)cc(SC#N)cc1C	1.0
Cc1cc2cc3c(cc2nc1SCC(=O)Nc1c(C)cccc1C)CCC3	1.0
Cc1ccc(NC(=O)C2CC2c2ccccc2)cc1 (stereo not drawn)	1.0
CC(=O)NNC(=O)c1csc(Cc2c(Cl)sc3ccc(Cl)cc23)n1	1.0
CCC1(C)Cc2c(sc3nnn(CC(=O)Nc4ccc(Cl)cc4)c(=O)c23)CO1 (stereo not drawn)	0.0
CC1=NN(C(=O)c2ccc(Br)cc2)C(O)(c2ccccc2)C1 (stereo not drawn)	0.0
CCOC(=O)NC(C(F)(F)F)(C(F)(F)F)P(=O)(c1ccccc1)c1ccccc1	0.0
CCc1ccccc1NC(=O)[C@@H]1CCC(=O)N1C1OC(=O)c2c1ccc(OC)c2OC (stereo partly drawn)	1.0
CC(C)Cc1nnc(NC(=O)CCc2ccccc2)s1	1.0
CCCn1c(C2CCCN2c2nc(-c3ccc(C)cc3)cs2)nc2cc(Cl)c(N3CCCCC3)cc21 (stereo not drawn)	1.0
Cc1cccc(NC(=S)NC(=O)c2ccc(Br)o2)c1	0.0
CCn1c(=S)[nH]c2sc3c(c2c1=O)CCCCC3	0.0
O=C(NCc1ccc2c(c1)OCO2)c1ccc(Cl)s1	1.0
CN(c1ccccc1)S(=O)(=O)c1ccc(Cl)c(C(=O)OCC(=O)NCc2ccco2)c1	0.0
Cc1ccc(-n2nc3c(c2NC(=O)CCC2CCCCC2)CS(=O)C3)cc1 (stereo not drawn)	1.0
O=C(NNC1=C(C(=O)C(F)(F)F)CCC1)c1ccncc1	0.0
CCn1c2ccccc2c2cc(NC(=O)CNC)ccc21	0.0
Oc1c(Cl)cc(Cl)c(Cl)c1Cc1c(O)c(Cl)cc(Cl)c1Cl	1.0
